Values from the METLIN SMRT retention time set (Domingo-Almenara et al. 2019)

// RP-LC retention time lookup, one value per entry
Assay: gradient 5% acetonitrile 3 min, to 50% in 2 min, to 85% in 15 min, held 3 min, 100 µL/min
Conditions: column: Zorbax Extend-C18 2.1 x 50 mm; eluents: water / acetonitrile, 0.1% formic acid
Give a bare numeral; the unit s is implied.

[
  {
    "molecule": "Fc1cc(F)c2nc(NCCCn3ccnc3)sc2c1",
    "reported": 548
  },
  {
    "molecule": "CCn1c(=O)n(CC(=O)N2CCN(c3ccccn3)CC2)c(=O)c2cnc(-c3ccccc3)nc21",
    "reported": 697
  },
  {
    "molecule": "COCCNC(=O)N1CCN(c2cc(-c3cccc(OC)c3)ncn2)CC1",
    "reported": 593
  }
]

Request: RP-LC retention time lookup needed for O=C(NCc1nc(-c2ccc(N3CCCCC3)cc2)no1)c1cccs1 , thanks.
Result: 877

* * *

Assay: gradient 5% acetonitrile 3 min, to 50% in 2 min, to 85% in 15 min, held 3 min, 100 µL/min
Details: column: Zorbax Extend-C18 2.1 x 50 mm; eluents: water / acetonitrile, 0.1% formic acid
// RP-LC retention time lookup, one value per entry
Give a bare numeral; the unit s is implied.

Below, 3 molecules whose answers are already recorded.
[
  {
    "molecule": "CN1C(=O)CCc2cc(NC(=O)c3ccsc3)ccc21",
    "metric": "RP-LC retention time",
    "reported": 691
  },
  {
    "molecule": "Cc1ccc(C)c(C(=O)N2C[C@@H](F)C[C@H]2C(=O)N2CCCCC2)c1",
    "metric": "RP-LC retention time",
    "reported": 710
  },
  {
    "molecule": "O=C(NCCN1CCC(Cc2ccccc2)CC1)c1ccc2c(c1)NC(=O)C1CCCCN21 (stereo not given)",
    "metric": "RP-LC retention time",
    "reported": 693
  }
]

Request: RP-LC retention time lookup needed for COc1ccc(NC(=O)C2(C)Oc3cccnc3NC2=O)c(OC)c1 (stereo not given) , thanks.
Result: 707

Request: Same lookup for CCn1cnnc1C1CCCCN1S(=O)(=O)c1cccc(F)c1 (stereo not given) , please.
Result: 716

* * *

Assay: gradient 5% acetonitrile 3 min, to 50% in 2 min, to 85% in 15 min, held 3 min, 100 µL/min
Details: column: Zorbax Extend-C18 2.1 x 50 mm; eluents: water / acetonitrile, 0.1% formic acid
API: label(entry) gives Fulfilled if the entry's RP-LC retention time is strictly smaller than 800 s; on equality or larger values it gives Not fulfilled.

[
  {
    "compound": "Cc1cccc(OCc2nnc(SCC(=O)Nc3nc(-c4ccccc4)cs3)o2)c1",
    "assigned-label": "Not fulfilled"
  }
]

Request: Is 800 s strictly greater than the compound's reported RP-LC retention time? compound: O=C(Nc1ccc(F)cc1)c1csc(-c2ccc(N3CCCC3)nc2)n1
Result: Fulfilled

Request: Same lookup for CC1CCN(S(=O)(=O)c2ccc3c(ccn3CC(=O)NCC(C)c3ccccc3)c2)CC1 (stereo not drawn) , please.
Result: Not fulfilled

Request: Same lookup for CCc1nc2cc(-c3noc(-c4sccc4C)n3)ccc2o1 , please.
Result: Not fulfilled

Request: Same lookup for O=C(c1cc(S(=O)(=O)N2CCCC(C(=O)N3CCCC3)C2)c[nH]1)N1CCCCCC1 (stereo not drawn) , please.
Result: Fulfilled

* * *

Assay: gradient 5% acetonitrile 3 min, to 50% in 2 min, to 85% in 15 min, held 3 min, 100 µL/min
Conditions: column: Zorbax Extend-C18 2.1 x 50 mm; eluents: water / acetonitrile, 0.1% formic acid
metric: RP-LC retention time (s)
Give a bare numeral; the unit s is implied.

[
  {
    "compound": "CC(C)CCNC(=O)C1CCCN(c2nc3ccsc3c(=O)n2Cc2ccccc2)C1 (stereo unspecified)",
    "unit-annotation": "s",
    "reported": 955
  },
  {
    "compound": "COc1ccc(-c2cn3c(CC(=O)Nc4ccc(F)cc4)csc3n2)cc1OC",
    "unit-annotation": "s",
    "reported": 729
  },
  {
    "compound": "COC(=O)c1sccc1NC(=O)N1CCCC1c1noc(COc2ccc(F)cc2)n1 (stereo unspecified)",
    "unit-annotation": "s",
    "reported": 1040
  },
  {
    "compound": "CC(C)(C)n1nnnc1C1CC2(CCOCC2)C(=O)N1Cc1cccc(F)c1 (stereo unspecified)",
    "unit-annotation": "s",
    "reported": 784
  },
  {
    "compound": "O=S(=O)(CCc1noc(-c2ccc3c(c2)OCO3)n1)c1ccc(Cl)cc1",
    "unit-annotation": "s",
    "reported": 979
  }
]

Request: RP-LC retention time lookup needed for CCc1ccc(N2C(=O)CN(S(C)(=O)=O)CC2(C)C(=O)NCc2ccc(Cl)cc2)cc1 (stereo unspecified) , thanks.
Result: 874

* * *

Test: gradient 5% acetonitrile 3 min, to 50% in 2 min, to 85% in 15 min, held 3 min, 100 µL/min
Settings: column: Zorbax Extend-C18 2.1 x 50 mm; eluents: water / acetonitrile, 0.1% formic acid
metric: RP-LC retention time (s)
Give a bare numeral; the unit s is implied.

Below, 6 compounds whose answers are already recorded.
[
  {
    "compound": "Cc1nc2cc(-c3noc(-c4cc(F)ccc4F)n3)ccc2o1",
    "metric": "RP-LC retention time",
    "reported": 1070
  },
  {
    "compound": "CC(C)CNC(=O)c1nn(-c2ccc(F)cc2)nc1CO",
    "metric": "RP-LC retention time",
    "reported": 888
  },
  {
    "compound": "CN1C(=O)C(c2c(-c3ccccc3)[nH]c3[nH]c(=O)[nH]c(=O)c23)c2ccccc21 (configuration not stated)",
    "metric": "RP-LC retention time",
    "reported": 668
  },
  {
    "compound": "COc1ccc(CC(=O)N2CCC3(C2)C(=O)N(C)c2ccc(OC)cc23)c(Cl)c1 (configuration not stated)",
    "metric": "RP-LC retention time",
    "reported": 825
  },
  {
    "compound": "O=C(COc1ccccc1)Nc1nc(-c2ccccc2)cs1",
    "metric": "RP-LC retention time",
    "reported": 1050
  },
  {
    "compound": "Cc1cc(C)cc(NC(=O)Cn2nc(N3CCCC3)c3ccccc3c2=O)c1",
    "metric": "RP-LC retention time",
    "reported": 1010
  }
]

For the next question, use this compound.
Request: RP-LC retention time lookup needed for CCc1noc(NC(C)=O)c1-c1ccc(C)c(S(=O)(=O)NC(C)C)c1 , thanks.
Result: 738

* * *

Assay: gradient 5% acetonitrile 3 min, to 50% in 2 min, to 85% in 15 min, held 3 min, 100 µL/min
Conditions: column: Zorbax Extend-C18 2.1 x 50 mm; eluents: water / acetonitrile, 0.1% formic acid
metric: RP-LC retention time (s)
Give a bare numeral; the unit s is implied.

[
  {
    "compound": "c1ccc(CN2CCC3(CCCc4ccccc43)CC2)cc1",
    "reported": 834
  }
]

Request: RP-LC retention time lookup needed for CCc1ccc(NC(=O)C2CCN(S(=O)(=O)c3cc(-c4noc(CC)n4)cs3)CC2)cc1 , thanks.
Result: 660

Request: Same lookup for CCC1CCCCN1C(=O)CN1C(=O)CCCc2cc(S(=O)(=O)N3CCC(C)CC3)ccc21 (configuration not stated) , please.
Result: 1040

Request: Same lookup for CC(C)CCNC(=O)Cn1ccn2nc(-c3ccc(F)cc3)c(CO)c2c1=O , please.
Result: 804

Request: Same lookup for CC(C)c1noc(-c2cc(=O)n(CC(=O)Nc3cccc(Cl)c3)c3ccccc23)n1 , please.
Result: 1070

Request: Same lookup for CCCN1CCN(C(=O)CCCn2c3ccccc3c3cnn(C)c(=O)c32)CC1 , please.
Result: 600

Request: Same lookup for Clc1cccc(CNc2cc(-n3ccnc3)ncn2)c1 , please.
Result: 589

* * *

Test: gradient 5% acetonitrile 3 min, to 50% in 2 min, to 85% in 15 min, held 3 min, 100 µL/min
Settings: column: Zorbax Extend-C18 2.1 x 50 mm; eluents: water / acetonitrile, 0.1% formic acid
We use 800 s as the dividing line for RP-LC retention time: on or above the line is met, below is not met.

Study these solved cases before continuing.
[
  {
    "molecule": "COc1ccccc1NC(=O)Cn1nc2cc(C)nc(-c3cccc(F)c3)n2c1=O",
    "assigned-label": "met"
  },
  {
    "molecule": "COCc1nnc(NS(=O)(=O)c2ccc([N+](=O)[O-])cc2)s1",
    "assigned-label": "not met"
  },
  {
    "molecule": "O=C(NCc1cccnc1-c1ccc(F)cc1)c1ccc(Br)cc1",
    "assigned-label": "not met"
  },
  {
    "molecule": "OC(COc1ccc(Br)cc1Br)CN1CCCC1 (stereo not given)",
    "assigned-label": "not met"
  },
  {
    "molecule": "COCCCNC(=O)c1cc(-c2ccc(C)cc2)nc2n[nH]c(-c3ccc(C)cc3)c12",
    "assigned-label": "met"
  },
  {
    "molecule": "CCOC(=O)c1cccc(NC2=NS(=O)(=O)C(c3ccc(F)cc3)=C2C)c1",
    "assigned-label": "met"
  }
]

Request: Is the recorded value of RP-LC retention time equal to or greater than 800 s for this molecule? CCc1nc(-c2csc(S(=O)(=O)N3CCCC(C(=O)NCc4cccs4)C3)c2)no1 (stereo not given)
Result: met

Request: Same lookup for Cc1ccc(C(=O)N2CCN(c3nc(CN4CCOCC4)cs3)CC2)cc1F , please.
Result: not met
